Assay: self-splicing fitness, log relative to wild type (ln ratio); higher = more splicing; Tetrahymena group I intron in knt gene, E. coli kanamycin selection, DiMSum; sequences stand for … in CUCUCU…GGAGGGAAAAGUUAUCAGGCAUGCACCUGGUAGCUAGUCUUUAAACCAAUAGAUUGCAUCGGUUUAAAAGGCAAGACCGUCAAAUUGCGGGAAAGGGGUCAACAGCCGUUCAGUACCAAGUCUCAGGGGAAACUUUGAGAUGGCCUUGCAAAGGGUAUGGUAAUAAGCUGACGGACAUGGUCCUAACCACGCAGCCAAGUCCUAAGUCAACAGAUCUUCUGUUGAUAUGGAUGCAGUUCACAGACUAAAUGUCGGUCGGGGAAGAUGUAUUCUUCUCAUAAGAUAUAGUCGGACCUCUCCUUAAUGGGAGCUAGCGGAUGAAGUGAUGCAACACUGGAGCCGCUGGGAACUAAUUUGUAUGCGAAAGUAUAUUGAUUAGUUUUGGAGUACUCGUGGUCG;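 further: selection with 25 µg/mL kanamycin versus none on LB agar overnight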
Details: 30 °C
Observed property: self-splicing fitness (ln)
No unit in the answer, only the number.

// query Consider the sequence "GGAAAGCAAUAUUACGGAAA" and give its measured self-splicing fitness (ln).
// result -2.04

// query Consider the sequence "CUAAAGCAAUAUUACGUCCA" and give its measured self-splicing fitness (ln).
// result -3.01

// query Consider the sequence "UACUAGCAAUAUUACGCCGA" and give its measured self-splicing fitness (ln).
// result -1.25
